# TESTED_TARGET: Protein zwilch homolog (UniProt Q9H900)
# Sequence (Q9H900 whole entry, looked up): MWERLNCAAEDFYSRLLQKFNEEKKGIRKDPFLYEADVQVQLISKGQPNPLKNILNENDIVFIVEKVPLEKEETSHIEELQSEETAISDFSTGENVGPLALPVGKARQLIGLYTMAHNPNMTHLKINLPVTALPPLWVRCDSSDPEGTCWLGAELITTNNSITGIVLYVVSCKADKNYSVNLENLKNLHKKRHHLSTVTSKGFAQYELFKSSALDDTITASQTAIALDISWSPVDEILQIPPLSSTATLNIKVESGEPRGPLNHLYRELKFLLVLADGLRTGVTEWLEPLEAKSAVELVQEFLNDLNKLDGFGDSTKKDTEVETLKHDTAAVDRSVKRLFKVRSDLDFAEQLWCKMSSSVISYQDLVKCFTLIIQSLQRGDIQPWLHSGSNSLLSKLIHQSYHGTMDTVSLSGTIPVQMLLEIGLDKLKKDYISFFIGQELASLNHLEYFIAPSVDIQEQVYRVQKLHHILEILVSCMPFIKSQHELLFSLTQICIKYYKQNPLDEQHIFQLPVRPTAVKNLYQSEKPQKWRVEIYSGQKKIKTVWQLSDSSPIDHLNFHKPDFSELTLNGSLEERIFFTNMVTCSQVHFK
# METHOD: protein binders in hepatoma cell extract, late-stage follow-up, mechanism study for Trib1 inducer project, cell lysate, SILAC, HepG2 extract, LC-MS/MS (AID 1053157)
# CONDITION_INFO: SILAC chemoproteomic competition binding
MEASUREMENT_TYPE: Kd

Prompt: Item "CN1C(=O)c2cc(NC(=O)c3ccc(C(F)(F)F)cc3)ccc2OC[C@@H]2O[C@H](CC(=O)NC3Cc4ccccc4C3)CC[C@@H]21" has what recorded Kd?
Response: 18.4 µM

###

# TESTED_TARGET: Ubiquitin carboxyl-terminal hydrolase 34 (UniProt Q70CQ2)
# Sequence (Q70CQ2 whole entry, looked up): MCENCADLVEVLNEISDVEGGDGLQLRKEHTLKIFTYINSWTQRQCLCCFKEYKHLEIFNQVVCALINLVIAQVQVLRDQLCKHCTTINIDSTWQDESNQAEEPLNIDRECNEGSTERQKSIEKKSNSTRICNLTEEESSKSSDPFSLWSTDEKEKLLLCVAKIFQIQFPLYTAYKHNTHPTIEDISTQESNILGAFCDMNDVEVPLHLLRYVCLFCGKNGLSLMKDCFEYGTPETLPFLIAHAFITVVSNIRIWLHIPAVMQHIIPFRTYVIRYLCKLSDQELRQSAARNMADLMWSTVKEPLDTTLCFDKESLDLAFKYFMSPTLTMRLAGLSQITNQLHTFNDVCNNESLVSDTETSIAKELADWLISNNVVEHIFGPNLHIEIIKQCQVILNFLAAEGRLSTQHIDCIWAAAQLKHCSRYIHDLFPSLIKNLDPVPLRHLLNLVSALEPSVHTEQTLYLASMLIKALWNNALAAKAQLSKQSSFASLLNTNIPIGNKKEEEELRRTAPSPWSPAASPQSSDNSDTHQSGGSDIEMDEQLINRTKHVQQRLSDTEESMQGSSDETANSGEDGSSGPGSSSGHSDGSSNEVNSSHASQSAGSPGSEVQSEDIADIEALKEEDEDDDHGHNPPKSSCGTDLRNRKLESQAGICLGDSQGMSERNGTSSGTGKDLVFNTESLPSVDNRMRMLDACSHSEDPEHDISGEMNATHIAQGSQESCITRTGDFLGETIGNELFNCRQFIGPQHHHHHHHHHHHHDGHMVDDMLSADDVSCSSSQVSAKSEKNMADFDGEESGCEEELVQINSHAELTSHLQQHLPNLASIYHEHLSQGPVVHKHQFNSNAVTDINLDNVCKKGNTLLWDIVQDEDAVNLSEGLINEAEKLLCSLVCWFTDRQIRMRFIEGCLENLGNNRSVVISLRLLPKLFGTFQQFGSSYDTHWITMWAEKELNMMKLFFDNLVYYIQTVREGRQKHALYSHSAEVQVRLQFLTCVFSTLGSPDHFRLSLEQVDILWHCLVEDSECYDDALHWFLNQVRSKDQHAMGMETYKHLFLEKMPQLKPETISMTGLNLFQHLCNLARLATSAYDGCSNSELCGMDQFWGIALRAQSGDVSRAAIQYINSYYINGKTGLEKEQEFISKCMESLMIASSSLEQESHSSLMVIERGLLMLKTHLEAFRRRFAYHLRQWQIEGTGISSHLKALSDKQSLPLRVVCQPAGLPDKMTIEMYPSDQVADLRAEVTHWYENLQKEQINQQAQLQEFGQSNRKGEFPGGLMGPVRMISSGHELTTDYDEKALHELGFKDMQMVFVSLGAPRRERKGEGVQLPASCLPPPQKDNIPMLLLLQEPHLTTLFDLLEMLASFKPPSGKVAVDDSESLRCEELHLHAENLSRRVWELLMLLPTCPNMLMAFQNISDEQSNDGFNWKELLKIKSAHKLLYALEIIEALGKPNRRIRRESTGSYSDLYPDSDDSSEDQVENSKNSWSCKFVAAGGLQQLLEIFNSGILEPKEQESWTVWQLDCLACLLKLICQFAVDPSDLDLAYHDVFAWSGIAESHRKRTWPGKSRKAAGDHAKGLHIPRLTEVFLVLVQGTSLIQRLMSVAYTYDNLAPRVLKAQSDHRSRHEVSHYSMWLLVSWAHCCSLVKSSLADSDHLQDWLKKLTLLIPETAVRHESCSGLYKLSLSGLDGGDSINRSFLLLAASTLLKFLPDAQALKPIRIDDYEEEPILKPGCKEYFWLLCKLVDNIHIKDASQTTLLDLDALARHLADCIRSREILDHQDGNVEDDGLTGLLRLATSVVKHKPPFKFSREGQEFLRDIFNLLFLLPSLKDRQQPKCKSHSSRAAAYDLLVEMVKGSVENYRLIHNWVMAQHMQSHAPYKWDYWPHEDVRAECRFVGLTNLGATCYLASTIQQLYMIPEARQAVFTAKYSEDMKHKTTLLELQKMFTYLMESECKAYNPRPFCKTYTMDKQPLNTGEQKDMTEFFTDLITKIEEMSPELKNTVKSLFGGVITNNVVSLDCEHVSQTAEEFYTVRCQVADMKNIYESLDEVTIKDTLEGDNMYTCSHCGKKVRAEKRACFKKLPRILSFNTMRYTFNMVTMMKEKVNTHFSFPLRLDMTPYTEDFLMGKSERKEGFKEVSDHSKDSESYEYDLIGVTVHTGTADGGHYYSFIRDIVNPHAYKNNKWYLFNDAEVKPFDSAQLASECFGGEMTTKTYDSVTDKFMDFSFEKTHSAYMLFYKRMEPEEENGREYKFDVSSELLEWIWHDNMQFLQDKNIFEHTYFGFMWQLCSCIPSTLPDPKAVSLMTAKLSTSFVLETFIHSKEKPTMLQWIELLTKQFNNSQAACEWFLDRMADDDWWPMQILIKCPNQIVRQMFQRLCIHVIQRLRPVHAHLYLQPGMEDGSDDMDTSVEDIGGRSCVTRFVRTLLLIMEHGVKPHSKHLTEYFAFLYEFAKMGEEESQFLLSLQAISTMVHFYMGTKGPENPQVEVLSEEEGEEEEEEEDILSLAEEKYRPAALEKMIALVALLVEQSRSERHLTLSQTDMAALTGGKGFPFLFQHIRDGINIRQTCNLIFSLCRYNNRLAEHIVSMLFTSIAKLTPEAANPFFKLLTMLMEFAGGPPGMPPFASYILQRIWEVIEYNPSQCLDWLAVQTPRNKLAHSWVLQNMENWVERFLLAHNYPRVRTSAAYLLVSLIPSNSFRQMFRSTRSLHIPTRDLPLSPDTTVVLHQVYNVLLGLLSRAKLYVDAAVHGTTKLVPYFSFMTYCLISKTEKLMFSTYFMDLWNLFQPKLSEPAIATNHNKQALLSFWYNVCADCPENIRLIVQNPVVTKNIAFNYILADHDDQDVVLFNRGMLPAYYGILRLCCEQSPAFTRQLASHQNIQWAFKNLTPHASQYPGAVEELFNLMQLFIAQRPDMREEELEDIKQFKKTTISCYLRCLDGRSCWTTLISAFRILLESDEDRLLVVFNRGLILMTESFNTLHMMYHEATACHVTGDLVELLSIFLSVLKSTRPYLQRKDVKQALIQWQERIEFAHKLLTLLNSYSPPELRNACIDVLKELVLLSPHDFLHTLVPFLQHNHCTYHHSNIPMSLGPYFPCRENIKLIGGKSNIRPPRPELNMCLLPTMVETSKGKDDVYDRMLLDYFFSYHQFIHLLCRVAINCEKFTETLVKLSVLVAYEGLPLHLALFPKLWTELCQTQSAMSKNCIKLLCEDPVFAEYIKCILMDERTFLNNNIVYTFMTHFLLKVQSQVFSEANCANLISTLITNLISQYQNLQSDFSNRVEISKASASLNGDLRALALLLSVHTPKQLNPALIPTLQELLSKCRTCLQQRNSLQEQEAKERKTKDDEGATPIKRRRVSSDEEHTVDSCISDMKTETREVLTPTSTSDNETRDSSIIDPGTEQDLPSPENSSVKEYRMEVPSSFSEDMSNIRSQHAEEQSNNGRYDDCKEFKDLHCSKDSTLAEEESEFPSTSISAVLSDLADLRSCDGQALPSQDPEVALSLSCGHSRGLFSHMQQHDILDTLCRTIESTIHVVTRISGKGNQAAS
# METHOD: protein binders in hepatoma cell extract, late-stage follow-up, mechanism study for Trib1 inducer project, cell lysate, SILAC, HepG2 extract, LC-MS/MS (AID 1053157)
# CONDITION_INFO: SILAC chemoproteomic competition binding
MEASUREMENT_TYPE: pKd
Answer as the number alone; pKd is minus log10 of concentration in mol/L.

Prompt: What is its pKd for Ubiquitin carboxyl-terminal hydrolase 34 (UniProt Q70CQ2)? Entry: "CN1C(=O)c2cc(NC(=O)c3ccc(C(F)(F)F)cc3)ccc2OC[C@@H]2O[C@H](CC(=O)NC3Cc4ccccc4C3)CC[C@@H]21"
Response: 4.59

###

# TESTED_TARGET: Prenylcysteine oxidase 1 (UniProt Q9UHG3)
# Sequence (Q9UHG3 whole entry, looked up): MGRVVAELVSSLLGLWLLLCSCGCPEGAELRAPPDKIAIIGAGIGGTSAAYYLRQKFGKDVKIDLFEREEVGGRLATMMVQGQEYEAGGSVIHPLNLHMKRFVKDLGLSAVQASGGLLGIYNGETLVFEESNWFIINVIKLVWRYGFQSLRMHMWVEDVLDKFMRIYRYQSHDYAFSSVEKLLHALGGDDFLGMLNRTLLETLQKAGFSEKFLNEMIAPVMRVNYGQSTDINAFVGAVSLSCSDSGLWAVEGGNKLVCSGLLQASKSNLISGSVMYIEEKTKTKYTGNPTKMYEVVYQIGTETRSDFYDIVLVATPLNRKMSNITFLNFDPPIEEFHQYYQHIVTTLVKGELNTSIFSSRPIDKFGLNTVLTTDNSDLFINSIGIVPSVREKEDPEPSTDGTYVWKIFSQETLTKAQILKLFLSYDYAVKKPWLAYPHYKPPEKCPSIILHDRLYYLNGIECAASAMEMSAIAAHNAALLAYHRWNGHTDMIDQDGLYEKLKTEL
# METHOD: protein binders in hepatoma cell extract, late-stage follow-up, mechanism study for Trib1 inducer project, cell lysate, SILAC, HepG2 extract, LC-MS/MS (AID 1053157)
# CONDITION_INFO: SILAC chemoproteomic competition binding
MEASUREMENT_TYPE: Kd (µM)
Answer in µM, number only, no unit symbol.

Prompt: Item "CN1C(=O)c2cc(NC(=O)c3ccc(C(F)(F)F)cc3)ccc2OC[C@@H]2O[C@H](CC(=O)NC3Cc4ccccc4C3)CC[C@@H]21" has what recorded Kd?
Response: 10.2

###

# TESTED_TARGET: NADH dehydrogenase [ubiquinone] 1 alpha subcomplex subunit 6 (Homo sapiens)
# METHOD: protein binders in hepatoma cell extract, late-stage follow-up, mechanism study for Trib1 inducer project, cell lysate, SILAC, HepG2 extract, LC-MS/MS (AID 1053157)
# CONDITION_INFO: SILAC chemoproteomic competition binding
MEASUREMENT_TYPE: pKd
Answer as the number alone; pKd is minus log10 of concentration in mol/L.

Prompt: What is its pKd for NADH dehydrogenase [ubiquinone] 1 alpha subcomplex subunit 6 (Homo sapiens)? Entry: "CN1C(=O)c2cc(NC(=O)c3ccc(C(F)(F)F)cc3)ccc2OC[C@@H]2O[C@H](CC(=O)NC3Cc4ccccc4C3)CC[C@@H]21"
Response: 4.53
